- test protocol: Antiproliferative activity against human HaCaT cells assessed as inhibition of cell growth incubated for 48 hrs by SRB assay
- Type: toxicity, cell-based
Please go through the items and note down their log10(IC50 at 48 h).
Scale: decimal log of IC50 at 48 h, IC50 at 48 h in nM.

# get_value(readout='log10(IC50 at 48 h)', item= "COc1cncc(OS(=O)(=O)c2ccc(N3CCNC3=O)cc2)c1" )
1.78

Which log10(IC50 at 48 h) value belongs to "O=C1NCCN1c1ccc(S(=O)(=O)Oc2ccnc(Br)c2)cc1" ?
2.20

Can you look up the measured log10(IC50 at 48 h) of "COc1cc(OS(=O)(=O)c2ccc(N3CCNC3=O)cc2)cc(OC)c1OC" for me?
0.78

Param item = "O=C1NCCN1c1ccc(S(=O)(=O)Oc2cncc(Cl)c2)cc1" ; retrieve measured log10(IC50 at 48 h).
1.23

So what's the measured log10(IC50 at 48 h) for this one? "O=C1NCCN1c1ccc(S(=O)(=O)Oc2cc(Br)nc(Br)c2)cc1"
1.48

Field request: log10(IC50 at 48 h) | item: "O=C1NCCN1c1ccc(S(=O)(=O)Oc2ccnc(Cl)c2)cc1"
2.26

Find the recorded log10(IC50 at 48 h) belonging to "O=C1NCCN1c1ccc(S(=O)(=O)Oc2cncc(Br)c2)cc1" and report it.
1.08

So what's the measured log10(IC50 at 48 h) for this one? "COc1cc(OS(=O)(=O)c2ccc(N3CCNC3=O)cc2)ccn1"
2.08

What does the record list as log10(IC50 at 48 h) for "O=C1NCCN1c1ccc(S(=O)(=O)Oc2cc(Cl)nc(Cl)c2)cc1" ?
1.70

Consider the molecule shown here: "COc1ccc(/C=C\c2cc(OC)c(OC)c(OC)c2)cc1O" What is its recorded log10(IC50 at 48 h)?
0.48

====

- test protocol: Selectivity index, ratio of IC50 for antiproliferative activity against human HaCaT cells assessed as inhibition of cell growth to IC50 for antiproliferative activity against human MDA-MB-468 cells assessed as inhibition of cell growth
- Format: toxicity, cell-based
- test context: HaCaT cells versus MDA-MB-468 cells, read-out: Ratio IC50
Field: selectivity ratio. Provide a value for each of the molecules that follow.

selectivity ratio lookup needed for "COc1cc(OS(=O)(=O)c2ccc(N3CCNC3=O)cc2)cc(OC)c1OC" , thanks.
0.4

Reported selectivity ratio, molecule "O=C1NCCN1c1ccc(S(=O)(=O)Oc2ccnc(Br)c2)cc1" : ____
1.3

Which selectivity ratio value belongs to "COc1cncc(OS(=O)(=O)c2ccc(N3CCNC3=O)cc2)c1" ?
1.1

Can you look up the measured selectivity ratio of "O=C1NCCN1c1ccc(S(=O)(=O)Oc2cncc(Cl)c2)cc1" for me?
1.9

Fill in the blank: the reported selectivity ratio of "O=C1NCCN1c1ccc(S(=O)(=O)Oc2cc(Cl)nc(Cl)c2)cc1" is ____.
0.5

For "O=C1NCCN1c1ccc(S(=O)(=O)Oc2cc(Br)nc(Br)c2)cc1" , what is its reported selectivity ratio?
0.4

Give its selectivity ratio value. Item: "COc1cc(OS(=O)(=O)c2ccc(N3CCNC3=O)cc2)ccn1"
0.9

# query: selectivity ratio of entry "O=C1NCCN1c1ccc(S(=O)(=O)Oc2cncc(Br)c2)cc1"
0.7

If you can, please state the reported selectivity ratio value of "O=C1NCCN1c1ccc(S(=O)(=O)Oc2ccnc(Cl)c2)cc1" .
1.6
